Just for reference, the supplement of paper PMC4466140 is where these values come from.

Could you please report measured SPOT peptide array binding signal intensity for the items listed next?
- testedSystem: AgHof1
- testProtocol: SPOT peptide array binding signal intensity (averaged, normalized) (arbitrary units (background-subtracted, floor 0; scale differs between SH3 domains)); higher = stronger binding of the SH3 domain to the peptide

**Q:** State the recorded SPOT peptide array binding signal intensity for this entry: `SSSSTPPTLPPRRIE`
**A:** 55

**Q:** Now the binder `IAPIPMPKPNPTHIS`
**A:** ≤ 0

**Q:** Now the binder `NENKKLPPAPTVFGL`
**A:** 19.5

**Q:** Now the binder `IKTRSVPKIPSIESV`
**A:** 27.8

**Q:** Now the binder `LSKRLPLRFPEHTSS`
**A:** 67.5

**Q:** Now the binder `DDEDVPPQLPTRTKS`
**A:** 28

**Q:** Now the binder `STPQTMRQAPKRPDA`
**A:** 10.5
